Please respond with reported Luciferase reporter gene assay, luciferase activity for every item in the list.
# Test system: THP-1 clone No. 63 (pGL2_Neo30; luciferase mRNA with three tandem AUUUA motifs of the IL-1β 3′UTR)
# Method Description: Luciferase reporter gene assay, clone No. 63 (pGL2_Neo30, with mRNA instability sequence)
# Format: cell-based, human
# Parameters: unit not given here
# Settings: clone 63; 1 μM
Answers are plain numbers.

[
  {
    "Compound": "COc1cc(O)c2c(c1)/C=C/CC(O)C(O)C(=O)/C=C\\CC(C)OC2=O (stereo not shown)",
    "Assay Value": 88
  },
  {
    "Compound": "COc1cc(O)c2c(c1OC)/C=C/C[C@H](O)[C@H](O)C(=O)/C=C\\C[C@H](C)OC2=O [drawing 13]",
    "Assay Value": 32
  },
  {
    "Compound": "COc1cc(O)c2c(c1)/C=C/CC(O)C(O)C(=O)CCCC(C)OC2=O (stereo not shown)",
    "Assay Value": 93
  },
  {
    "Compound": "C[C@@H]1C[C@H]2O[C@@H]2CCCCC(=O)Cc2c(Cl)c(O)cc(O)c2C(=O)O1",
    "Assay Value": 64
  },
  {
    "Compound": "C[C@@H]1C[C@H]2O[C@@H]2CCCCC(=O)Cc2cc(O)cc(O)c2C(=O)O1",
    "Assay Value": 66
  }
]

For each of the compounds below, state Luciferase reporter gene assay, luciferase activity.
1. C[C@@H]1C[C@H]2O[C@@H]2/C=C\C=C\C(=O)Cc2c(Cl)c(O)cc(O)c2C(=O)O1
2. COc1cc(O)c2c(c1OC)/C=C/C[C@H](O)[C@H](O)C(=O)/C=C/C[C@H](C)OC2=O

[18, 94]

----------
# System: THP-1 clone No. 53 (pGL2_Neo / pGL2-Control)
# Method Description: Luciferase reporter gene assay, control clone No. 53 (no instability sequence)
# Assay type: cell-based, human
# Set-up: unit not given here
# Settings: clone 53; 1 μM
Hi, to clarify the labels: Met covers Luciferase reporter gene assay, luciferase activity from 80 upward, Not met covers anything below 80.

Look over these answered cases.
[
  {
    "Compound": "C[C@@H]1C[C@H]2O[C@@H]2CCCCC(=O)Cc2c(Cl)c(O)cc(O)c2C(=O)O1",
    "Category Label": "Not met"
  },
  {
    "Compound": "COc1cc(O)c2c(c1)/C=C/CC(O)C(O)C(=O)CCCC(C)OC2=O (stereo not shown)",
    "Category Label": "Met"
  },
  {
    "Compound": "COc1cc(O)c2c(c1)/C=C/CC(O)C(O)C(=O)/C=C\\CC(C)OC2=O (stereo not shown)",
    "Category Label": "Met"
  },
  {
    "Compound": "COc1cc(O)c2c(c1OC)/C=C/C[C@H](O)[C@H](O)C(=O)/C=C\\C[C@H](C)OC2=O [drawing 13]",
    "Category Label": "Met"
  },
  {
    "Compound": "C[C@@H]1C[C@H]2O[C@@H]2/C=C\\C=C\\C(=O)Cc2c(Cl)c(O)cc(O)c2C(=O)O1",
    "Category Label": "Not met"
  }
]

API: above_or_equal(metric=Luciferase reporter gene assay, luciferase activity, cutoff=80) for item COc1cc(O)c2c(c1OC)/C=C/C[C@H](O)[C@H](O)C(=O)/C=C/C[C@H](C)OC2=O
Met
